Ref: patent US20230117034A1

- Tested on: Human tumour cells (cell line panel)
- MEASUREMENT NOTES: Proliferation assay: cell line panel (crystal violet, 4 days)
- Format: cell-based
- REPORTED CONDITIONS: SNU-449, SNU449, liver cancer, 4000 cells/well, read-out: Result Category, IC50 (mean)
OBSERVATION TYPE: IC50

Field IC50 (entry Brc1cnn2c(NCc3nc4ccccc4[nH]3)nc(N3CCOCC3)nc12 [Example 4] ) reads 30 to 100 nM

* * *

- TESTED SYSTEM: CDK12 (nuclear staining in CAL-120 cells) (Homo sapiens, UniProt Q9NYV4)
- Construct: endogenous in cells; host or cells: CAL-120 human breast cancer cells (DSMZ ACC 459)
- Sequence (Q9NYV4 whole entry): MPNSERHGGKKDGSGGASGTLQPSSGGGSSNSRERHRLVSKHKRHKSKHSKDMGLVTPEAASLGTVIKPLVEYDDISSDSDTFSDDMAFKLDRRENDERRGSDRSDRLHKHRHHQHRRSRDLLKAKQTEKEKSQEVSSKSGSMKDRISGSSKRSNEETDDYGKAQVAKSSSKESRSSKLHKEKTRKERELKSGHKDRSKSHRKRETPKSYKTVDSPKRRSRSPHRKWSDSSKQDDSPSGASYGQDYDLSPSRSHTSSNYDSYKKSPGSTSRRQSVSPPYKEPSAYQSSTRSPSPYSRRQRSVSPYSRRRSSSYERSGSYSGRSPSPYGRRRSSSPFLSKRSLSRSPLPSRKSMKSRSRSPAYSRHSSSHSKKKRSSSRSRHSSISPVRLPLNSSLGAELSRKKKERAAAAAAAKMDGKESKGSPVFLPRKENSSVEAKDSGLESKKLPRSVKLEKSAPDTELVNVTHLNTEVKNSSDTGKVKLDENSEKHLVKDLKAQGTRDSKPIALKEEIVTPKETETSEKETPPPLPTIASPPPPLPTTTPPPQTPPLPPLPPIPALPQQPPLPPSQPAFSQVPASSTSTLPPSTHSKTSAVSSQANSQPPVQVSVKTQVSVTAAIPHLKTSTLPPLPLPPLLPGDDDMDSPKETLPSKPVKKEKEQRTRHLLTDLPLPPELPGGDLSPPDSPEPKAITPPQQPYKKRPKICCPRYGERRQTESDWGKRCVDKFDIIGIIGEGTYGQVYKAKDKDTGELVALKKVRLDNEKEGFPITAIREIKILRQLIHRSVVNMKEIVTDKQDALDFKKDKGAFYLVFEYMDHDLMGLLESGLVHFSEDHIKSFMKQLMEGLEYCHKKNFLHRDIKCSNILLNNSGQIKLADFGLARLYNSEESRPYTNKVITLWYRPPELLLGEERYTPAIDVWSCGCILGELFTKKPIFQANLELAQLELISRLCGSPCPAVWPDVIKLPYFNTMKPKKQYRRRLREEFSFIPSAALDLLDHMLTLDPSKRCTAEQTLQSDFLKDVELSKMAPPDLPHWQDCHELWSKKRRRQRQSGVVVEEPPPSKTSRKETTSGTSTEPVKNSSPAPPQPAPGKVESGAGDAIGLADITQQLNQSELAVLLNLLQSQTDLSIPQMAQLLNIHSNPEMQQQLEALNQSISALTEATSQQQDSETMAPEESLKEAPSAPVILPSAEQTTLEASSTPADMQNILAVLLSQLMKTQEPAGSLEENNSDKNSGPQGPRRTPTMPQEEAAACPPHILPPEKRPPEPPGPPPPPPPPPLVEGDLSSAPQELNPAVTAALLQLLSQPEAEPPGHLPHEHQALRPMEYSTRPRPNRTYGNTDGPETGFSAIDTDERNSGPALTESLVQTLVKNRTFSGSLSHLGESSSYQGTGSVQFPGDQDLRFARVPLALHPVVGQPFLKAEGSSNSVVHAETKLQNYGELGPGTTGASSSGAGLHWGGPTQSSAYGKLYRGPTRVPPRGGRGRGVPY
- Sequence (O75909 whole entry partner): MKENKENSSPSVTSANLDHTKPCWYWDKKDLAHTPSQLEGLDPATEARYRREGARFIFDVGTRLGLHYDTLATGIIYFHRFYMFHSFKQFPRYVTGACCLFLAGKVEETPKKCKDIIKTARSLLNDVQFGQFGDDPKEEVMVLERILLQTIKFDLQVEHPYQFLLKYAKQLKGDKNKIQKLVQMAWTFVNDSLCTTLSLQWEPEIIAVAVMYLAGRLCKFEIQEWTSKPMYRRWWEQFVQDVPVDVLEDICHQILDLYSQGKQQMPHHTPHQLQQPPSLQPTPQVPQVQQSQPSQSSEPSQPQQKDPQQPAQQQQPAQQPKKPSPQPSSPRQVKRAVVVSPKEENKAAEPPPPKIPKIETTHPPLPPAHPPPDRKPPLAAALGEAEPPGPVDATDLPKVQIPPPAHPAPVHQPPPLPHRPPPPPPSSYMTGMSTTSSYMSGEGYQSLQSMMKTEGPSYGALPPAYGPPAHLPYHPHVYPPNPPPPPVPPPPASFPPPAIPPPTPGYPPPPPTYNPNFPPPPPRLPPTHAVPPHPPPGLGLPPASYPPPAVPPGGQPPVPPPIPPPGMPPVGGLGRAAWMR
- MEASUREMENT NOTES: CDK12 nuclear protein level: immunofluorescence/high content analysis (CAL-120)
- Format: cell-based
- REPORTED CONDITIONS: CAL-120 cells, 24 h, immunofluorescence; 50% reduction of nuclear CDK12 staining intensity; median; read-out: CDK12 degradation IF, DC50- [mol/l] (median)
- Procedure: In the context of the present invention, the term “DC50 CDK12” refers to the DC50 values obtained according to the assay described in this section (7) herein below, i.e. the DC50 values for the degradation of CDK12. Plates are then incubated for 24 h at 37° C. in an humidified incubator and fixed with 4% PFA for 10 min. […] Nuclear and cytoplasmic intensity as well as the nuclear/cytoplasmic intensity ratio is determined by automated image analysis using custom generated scripts (MetaXpress). […]
OBSERVATION TYPE: DC50
Your reply should be a number followed by the unit it is expressed in.

Measured DC50 (CDK12 (nuclear staining in CAL-120 cells) (Homo sapiens, UniProt Q9NYV4)), entry CC(C)c1cnn2c(NCc3nc4ccccc4[nH]3)nc(N3CC4(COC4)C3)nc12 : 80.9 nM

Param item: CN1CCN(c2nc(NCc3nc4ccccc4[nH]3)n3ncc(CC(F)(F)F)c3n2)CC1 ; param system: CDK12 (nuclear staining in CAL-120 cells) (Homo sapiens, UniProt Q9NYV4); output DC50: 14.7 nM

Note to self: DC50 of Fc1cccc2[nH]c(CNc3nc(N4CCOCC4)nc4c(C(F)(F)F)cnn34)nc12 with CDK12 (nuclear staining in CAL-120 cells) (Homo sapiens, UniProt Q9NYV4) was 0.881 nM

For each entry beneath this line, provide reported DC50.
1. CN1CCN(c2nc(NCc3nc4c(F)cccc4[nH]3)n3ncc(Br)c3n2)CC1
2. Brc1cnn2c(NCc3nc4ccccc4[nH]3)nc(N3CCN4CCC3C4)nc12 (stereo not drawn)
3. CCNC1CCN(c2nc(NCc3nc4ccccc4[nH]3)n3ncc(Br)c3n2)CC1
4. FC(F)(F)Oc1cccc2[nH]c(CNc3nc(N4C[C@H]5CC[C@@H](C4)N5)nc4c(Br)cnn34)nc12

Result ::
["0.906 nM", "6.55 nM", "17.9 nM", "22.2 nM"]

Provide DC50 for all items below, preserving their order.
1. CC(C)c1cnn2c(NCc3nc4ccccc4[nH]3)nc(N3CCOC[C@@H]3C)nc12
2. CN(c1nc(NCc2nc3ccccc3[nH]2)n2ncc(Br)c2n1)[C@H]1C[C@@H](O)C1

Result ::
1. 3.32 nM
2. 3.81 nM
